# Tested on: M19-MEL melanoma
# EXPERIMENTAL_DETAILS: NCI tumour cell line growth inhibition, 48 h
OBSERVED_PROPERTY: TGI

Q: Fill in: TGI of O=C1C2=C(CCCC2)Nc2cccc3ncn1c23 is ___
Result: > 100 µM

Q: Fill in: TGI of COC(=O)c1sc(=O)n(-c2ccccc2)c1SCc1ccccc1 is ___
Result: > 100 µM

Q: Fill in: TGI of CC[C@@]1(O)C(=O)OCc2c1cc1n(c2=O)Cc2cc3c([N+](=O)[O-])c(OC)ccc3nc2-1 is ___
Result: 1.6 µM

Q: Fill in: TGI of CC12OC3(O)C4C5CC(C6C5C3C61)C42 (stereo not drawn) is ___
Result: > 100 µM

Q: Fill in: TGI of Cn1cc2ccccc2c1-c1nc(F)nc(Oc2ccc3c(c2)CC[C@@H]2C3CC[C@@]3(C)C2CC[C@@H]3O)n1 (stereo partly drawn) is ___
Result: > 56.5 µM

Q: Fill in: TGI of O=C(O)C1(C(=O)O)CC1 is ___
Result: > 100 µM

Q: Fill in: TGI of O=NN(CCCl)C(=O)NC1CCC(C(=O)O)CC1 (stereo not drawn) is ___
Result: > 100 µM

Q: Fill in: TGI of O=C1c2ccccc2C(=O)N1CCn1nc(-c2ccccc2)cc(-c2ccccc2)c1=O is ___
Result: > 100 µM

====

# Tested on: COLO 205 colon
# EXPERIMENTAL_DETAILS: NCI tumour cell line growth inhibition, 48 h
Where a SMILES comes first, the peptide text is derived from it. The star is where a group is joined. CH2Cl = ClC*
OBSERVED_PROPERTY: TGI

Q: Fill in: TGI of Cn1cc(C2=C(c3cn(C)c4cc(C(=O)O)ccc34)C(=O)NC2=O)c2ccccc21 is ___
Result: > 25 µM

Q: Fill in: TGI of Cc1nc2c(=O)n(C)c(=O)n(C)c2o1 is ___
Result: > 100 µM

Q: Fill in: TGI of [N-]=[N+]=NC1=CC(=O)c2cccc3cccc1c23 is ___
Result: > 100 µM

Q: Fill in: TGI of Cc1[nH]c2ncn(Nc3ccccc3)c(=N)c2c1Cc1ccccc1 is ___
Result: > 100 µM

Q: Fill in: TGI of CC(=O)NC(CC(C)C)C(=O)NC(Cc1ccccc1)C(=O)CCl (stereo not drawn) (Ac-Leu-Phe-CH2Cl; configuration not given here) is ___
Result: > 51.1 µM

Q: Fill in: TGI of OCCCNCC(O)c1ccc(OCc2ccccc2)c(OCc2ccccc2)c1 (stereo unspecified) is ___
Result: 10.2 µM

Q: Fill in: TGI of Cc1c(C(=O)C(=O)c2ccccc2)c(C)c(C(=O)C(=O)c2ccccc2)c(C)c1C(=O)C(=O)c1ccccc1 is ___
Result: > 100 µM

Q: Fill in: TGI of CN(CC(=O)O)c1ncc2c(n1)-c1ccccc1OC2c1ccccc1 (stereo unspecified) is ___
Result: > 100 µM

Q: Fill in: TGI of O=c1cc(NNc2ccc3ccccc3c2)[nH]c(=S)[nH]1 is ___
Result: 46 µM

Q: Fill in: TGI of COc1ccc(NCC#N)cc1 is ___
Result: > 100 µM

Q: Fill in: TGI of Cn1cnc([N+](=O)[O-])c1Sc1nc2ncccc2[nH]1 is ___
Result: 56.5 µM

Q: Fill in: TGI of COc1ccc(NS(=O)c2ccc(Cl)cc2)cc1 (stereo unspecified) is ___
Result: > 100 µM

Q: Fill in: TGI of CCCCCCCCNC(=O)C1=C(C)NC(C)=C(C(=O)NCCCCCCCC)C1 is ___
Result: > 100 µM

Q: Fill in: TGI of O=C1Nc2ccccc2S/C1=C\c1ccc(C(F)(F)F)cc1 is ___
Result: > 100 µM

Q: Fill in: TGI of CSc1nc(-c2ccccc2)c(C#N)c(=O)[nH]1 is ___
Result: > 100 µM

Q: Fill in: TGI of COC(=O)C(Cc1c[nH]c2ccccc12)NC(=O)C(Cc1c[nH]c2ccccc12)NC(=O)OCc1ccccc1 (stereo unspecified) is ___
Result: 30.6 µM

Q: Fill in: TGI of COc1ccc(N2C(=O)C3c4[nH]c5ccc(OC)cc5c4C4CCC(C(C)C)CC4C3C2=O)cc1 (stereo unspecified) is ___
Result: > 100 µM

Q: Fill in: TGI of C[C@]12CCc3nonc3C1CC[C@@H]1C2CC[C@]2(C)C(=O)/C(=N\O)CC12 (stereo partly specified) is ___
Result: > 100 µM

Q: Fill in: TGI of CNCCCNc1c2cc(OC)ccc2nc2cccc([N+](=O)[O-])c12 is ___
Result: 0.237 µM

Q: Fill in: TGI of Cn1cc2ccccc2c1-c1nc(F)nc(Oc2ccc3c(c2)CC[C@@H]2C3CC[C@@]3(C)C2CC[C@@H]3O)n1 (stereo partly specified) is ___
Result: 41.8 µM

Q: Fill in: TGI of C[Si]1(C)C(c2ccccc2)=CC2C(c3ccccc3)(c3ccccc3)OC21c1ccccc1 (stereo unspecified) is ___
Result: > 100 µM

====

# Tested on: LOX IMVI melanoma
# EXPERIMENTAL_DETAILS: NCI tumour cell line growth inhibition, 48 h
Field: TGI. Provide a value for each of the compounds that follow.
// units = µM; emit number, no label

Q: Recall the recorded TGI for C[C@]12CC[C@@H]3c4ccc(O)cc4CC[C@H]3[C@@H]1CC[C@@H]2OC(=O)CCC1CCCC1 with LOX IMVI melanoma and state it.
Result: 35.6

Q: Recall the recorded TGI for CCCCN(CCCC)CC(O)c1ccc(OCc2ccccc2)c2ccccc12 (stereo not given) with LOX IMVI melanoma and state it.
Result: 4.78

Q: Recall the recorded TGI for CC(C)OP(=O)(CCCCCCCCC/C=C/c1ccc2c(c1)OCCOCCOCCOCCO2)OC(C)C with LOX IMVI melanoma and state it.
Result: 4.93

Q: Recall the recorded TGI for COc1ccc(/C=C2\CS(=O)(=O)C/C(=C\c3ccc(OC)cc3)C2=O)cc1 with LOX IMVI melanoma and state it.
Result: 1.91

====

Field: TGI. Provide a value for each of the compounds that follow.
# Tested on: DLD-1 colon
# EXPERIMENTAL_DETAILS: NCI tumour cell line growth inhibition, 48 h

Q: Fill in: TGI of Cc1nc(C(N)=S)sc1C(=O)CC(=O)C(=O)Nc1c(C(C)C)cccc1C(C)C is ___
Result: > 100 µM

Q: Fill in: TGI of CN(N=O)C(=O)N(N)CCCCC(NC(=O)OCc1ccccc1)C(=O)OCc1ccccc1 (stereo not drawn) is ___
Result: > 100 µM

Q: Fill in: TGI of O=CC(NC(=O)N(CCCl)N=O)C(O)C(O)C(O)CO (stereo not drawn) is ___
Result: > 1250 µM

Q: Fill in: TGI of COc1ccc(NC(=O)C(=O)NO)c(OC)c1 is ___
Result: 41 µM

Q: Fill in: TGI of CCOC(=O)Cn1c(=O)n(C)c(=O)c2[nH]cnc21 is ___
Result: > 100 µM

Q: Fill in: TGI of CN=C(NC#N)N(Cc1ccccc1)Cc1ccccc1 is ___
Result: > 100 µM

Q: Fill in: TGI of O=NN(CCCl)C(=O)NC1CCC(C(=O)O)CC1 (stereo not drawn) is ___
Result: > 100 µM

Q: Fill in: TGI of COC(=O)c1sc(=O)n(-c2ccccc2)c1SCc1ccccc1 is ___
Result: > 100 µM

Q: Fill in: TGI of O=C1C2=C(CCCC2)Nc2cccc3ncn1c23 is ___
Result: > 100 µM

Q: Fill in: TGI of Cc1cc(C)nc(NS(=O)(=O)c2ccc(NC(=O)c3cccc4c(Nc5ccc(S(=O)(=O)N=C(N)N)cc5)c5ccc(Cl)cc5nc34)cc2)n1 is ___
Result: 43.2 µM

Q: Fill in: TGI of CC12OC3(O)C4C5CC(C6C5C3C61)C42 (stereo not drawn) is ___
Result: > 100 µM

Q: Fill in: TGI of COc1cc(/C=C/c2cccnc2)cc(OC)c1OC is ___
Result: > 100 µM

Q: Fill in: TGI of C[C@]12CC[C@@H]3c4ccc(O)cc4CC[C@H]3[C@@H]1CC[C@@H]2OC(=O)CCC1CCCC1 is ___
Result: 98.6 µM

====

# System: PC-3 prostate
# EXPERIMENTAL_DETAILS: NCI tumour cell line growth inhibition, 48 h
Field: GI50. Provide a value for each of the compounds that follow.

Q: Fill in: GI50 of COc1ccc(/C=N/Nc2nc(N)nc(N3CCCC3)c2C#N)cc1 is ___
Result: 14.7 µM

Q: Fill in: GI50 of C=C(C)[C@@H]1C/C=C(\COC(=O)[C@H](OC(C)=O)C(NC(=O)c2ccccc2)c2ccccc2)CC[C@H]2O[C@]2(C)CC/C=C(\C)CC1 (stereo partly drawn) is ___
Result: 13.3 µM

Q: Fill in: GI50 of CCOC(=O)c1ccc(NC(=O)Nc2nccs2)cc1 is ___
Result: 0.443 µM

Cited source for all entries: PubChem BioAssay (NCI)
